Source listed as PubChem BioAssay.

# Test system: Fibrinogen (Alexa647-labelled)
# method description: Alexa647-fibrinogen binding to printed small molecules – biochemical, small-molecule microarray, 635/667 nm fluorescence, artefact control for SMM control-protein annotation, profiling panel (AID 1131);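 also: z-score merges 667 nm fluorescence with per-spot signal-to-noise over triplicate slides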
# particulars: fibrinogen-A647 binding fluorescence, higher = more signal
Documented composite z-score across a set of compounds
Please give only the number in your answer, with no unit.

compound	composite z-score
CC(C)(C)OC(=O)CC[C@]1(C(=O)NCC(O)CO)N=C(c2ccc(OCCCO)cc2)O[C@H]1c1ccccc1CN=[N+]=[N-] (some centres undefined)	1.03

Bench note: what composite z-score did O=C1c2ccccc2[C@@]2(Cc3ccccc3N(Cc3ccccc3)C2=O)[C@H](c2ccc(CO)cc2)N1Cc1ccccc1C(F)(F)F show?
-2.02

// lookup composite z-score for C=CCC(OC(C)=O)[C@@H]1[C@@H](N(Cc2cc3ccccc3o2)C(=O)c2cccc3ccccc23)c2cc(OCCCO)ccc2N1C(=O)Cc1ccc2ccccc2c1 (some centres undefined)
0.571

Endpoint output: composite z-score of CN(C)CCCC[C@@H]1NC(=O)[C@@H]2C[C@H](C(=O)NCCCCCCN)[C@H](c3ccc(O)cc3)N2C1=O . Value?
0.763

* * *

# method description: binders of probe aHhip on microarray, primary screen, stem cell growth factor project, biochemical, small-molecule microarray, fluorescence 635/667 (AID 1087);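 also: score merges spot fluorescence at 667nm with spot signal to noise ratio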
# particulars: higher = more signal
composite z-score by entry:
Please give only the number in your answer, with no unit.

compound	value
COc1ccc([Si](C)(C)[C@H]2[C@H](CCO)O[C@@]3(C(=O)N(Cc4cccc(N5C(=O)c6cccc7cccc5c67)c4)c4ccccc43)[C@@H]2C)cc1	-0.212
C=CCC(OC(C)=O)[C@@H]1[C@@H](N(Cc2cc3ccccc3o2)C(=O)c2cccc3ccccc23)c2cc(OCCCO)ccc2N1C(=O)Cc1ccc(OC)cc1 (some centres undefined)	-0.109

Which measured composite z-score value corresponds to C=C(C(=O)CC[C@@H](OC(C)=O)c1ccc(OCCO)cc1)C(C)C ?
-0.287

Please give the measured composite z-score for this compound: CCCCCCCCCCC(O)C1C=CC2C(=O)N(c3ccccc3)C(=O)C2N1Nc1ccc([N+](=O)[O-])cc1 (centres undefined)
-0.199

* * *

# System: XIP peptide (Xip251-270) binding
# method description: XIP fragment 251-270 binding compounds – biochemical, small-molecule microarray, fluorescence 635/667 nm, 0.1 µg/mL protein, primary screen (AID 1182)
# particulars: fluorescent protein binding, 635 nm, higher = more signal, called active from +8 up or from −8 down
measured metric: composite z-score
# print the numeric value only

Example results:
compound	composite z-score
COc1ccc(C#Cc2ccc3c(c2)[C@]2(C(=O)N3)[C@H](c3ccc(OCCO)cc3)N3[C@H](c4ccccc4)[C@H](c4ccccc4)OC(=O)[C@H]3[C@@H]2C(=O)Nc2nc3ccccc3s2)cc1	0.353
C=CCC(OC(C)=O)[C@@H]1[C@@H](N(Cc2cc3ccccc3o2)C(=O)c2cccc3ccccc23)c2cc(OCCCO)ccc2N1C(=O)Cc1ccc2ccccc2c1 (some centres undefined)	-0.0088
CCCNC(=O)[C@@]1(c2ccc([N+](=O)[O-])cc2)CC(=O)N(CC23CC4CC(CC(C4)C2)C3)[C@@H]1c1ccc(CO)cc1I	1.18

Next, consider the following compound.
Fill in the recorded composite z-score for this compound, with XIP peptide (Xip251-270) binding as test system: Oc1ccc2cc[n+](Cc3cccc(OC(F)(F)F)c3)cc2c1
0.143
